test system: SYO-1 complex spheroid growth, percent test/control; assay: Anticancer human tumor SYO-1 cell line growth inhibition [Asc]; conditions: second compound 0.0316 µM; first compound 0.03 µM; stronger effect = lower value;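 note: compound exposure lasted 7 days after spheroids grew 3 days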;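 for viability, T/C: 100% = DMSO vehicle control viability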
reported_endpoint: viability, T/C (%)
Write down the numeric answer in % and omit the unit.

Below, each entry is followed by its recorded viability, T/C result.
| molecule | reported_endpoint | unit_abbrev | numeric_readout |
| --- | --- | --- | --- |
| NC(=O)C(=Cn1cnc(-c2cc(C(F)(F)F)cc(C(F)(F)F)c2)n1)c1cncnc1 + CNC(C)C(=O)NC1CN(S(=O)(=O)c2cccc(S(=O)(=O)N3CCC4CCC(C(=O)NC(c5ccccc5)c5ccccc5)N4C(=O)C(NC(=O)C(C)NC)C3)c2)CCC2CCC(C(=O)NC(c3ccccc3)c3ccccc3)N2C1=O | viability, T/C | % | 108 |
| Cc1nc(N2CCC3(CC2)COC(C)C3N)c(CO)nc1Sc1ccnc(N)c1Cl (stereo unspecified) + Cc1c(S(C)(=O)=O)c(-c2cc(F)cc(N3CCN(c4ccc(NS(=O)(=O)c5ccc(NC(CCN6CCC(C(=O)OCCCP(=O)(O)O)CC6)CSc6ccccc6)c(S(=O)(=O)C(F)(F)F)c5)cc4)CC3)c2)c(-c2ccc(Cl)cc2)n1C(C)C | viability, T/C | % | 99.6 |
| CCN1C(C(=O)NC23CCC(C(=O)O)(CC2)CC3)C(c2cccc(Cl)c2F)C2(C(=O)Nc3cc(Cl)ccc32)C12CCCCC2 (stereo unspecified) + CNC(C)C(=O)NC1CN(S(=O)(=O)c2cccc(S(=O)(=O)N3CCC4CCC(C(=O)NC(c5ccccc5)c5ccccc5)N4C(=O)C(NC(=O)C(C)NC)C3)c2)CCC2CCC(C(=O)NC(c3ccccc3)c3ccccc3)N2C1=O | viability, T/C | % | 96.6 |
| CCN1C(C(=O)NC23CCC(C(=O)O)(CC2)CC3)C(c2cccc(Cl)c2F)C2(C(=O)Nc3cc(Cl)ccc32)C12CCCCC2 (stereo unspecified) + Cc1c(S(C)(=O)=O)c(-c2cc(F)cc(N3CCN(c4ccc(NS(=O)(=O)c5ccc(NC(CCN6CCC(C(=O)OCCCP(=O)(O)O)CC6)CSc6ccccc6)c(S(=O)(=O)C(F)(F)F)c5)cc4)CC3)c2)c(-c2ccc(Cl)cc2)n1C(C)C | viability, T/C | % | 88.5 |
| NC(=O)C(=Cn1cnc(-c2cc(C(F)(F)F)cc(C(F)(F)F)c2)n1)c1cncnc1 + Cc1c(S(C)(=O)=O)c(-c2cc(F)cc(N3CCN(c4ccc(NS(=O)(=O)c5ccc(NC(CCN6CCC(C(=O)OCCCP(=O)(O)O)CC6)CSc6ccccc6)c(S(=O)(=O)C(F)(F)F)c5)cc4)CC3)c2)c(-c2ccc(Cl)cc2)n1C(C)C | viability, T/C | % | 93.8 |

Task: What measured viability, T/C is associated with Cc1nc(N2CCC3(CC2)COC(C)C3N)c(CO)nc1Sc1ccnc(N)c1Cl (stereo unspecified) + CNC(C)C(=O)NC1CN(S(=O)(=O)c2cccc(S(=O)(=O)N3CCC4CCC(C(=O)NC(c5ccccc5)c5ccccc5)N4C(=O)C(NC(=O)C(C)NC)C3)c2)CCC2CCC(C(=O)NC(c3ccccc3)c3ccccc3)N2C1=O on SYO-1 complex spheroid growth, percent test/control?
Result: 104

---

test system: SYO-1 complex spheroid growth, percent test/control; experiment: Anticancer human tumor SYO-1 cell line growth inhibition [Asc]; conditions: curve of first compound; second compound 0.1 µM;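 note: compound exposure lasted 7 days after spheroids grew 3 days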
reported_endpoint: IC50

Below, each entry is followed by its recorded IC50 result.
| compound | system_name | IC50 |
| --- | --- | --- |
| C=C(F)C(=O)N1CCN(c2nc(OCC3CCCN3C)nc3c2CCN(c2cccc4cccc(Cl)c24)C3)CC1CC#N (stereo not drawn) + CNC(C)C(=O)NC1CN(S(=O)(=O)c2cccc(S(=O)(=O)N3CCC4CCC(C(=O)NC(c5ccccc5)c5ccccc5)N4C(=O)C(NC(=O)C(C)NC)C3)c2)CCC2CCC(C(=O)NC(c3ccccc3)c3ccccc3)N2C1=O | SYO-1 complex spheroid growth, percent test/control | 5.58 µM |
| O=C(c1ccc(F)c(F)c1Nc1ccc(I)cc1F)N1CC(O)([C@@H]2CCCCN2)C1 + Cc1c(S(C)(=O)=O)c(-c2cc(F)cc(N3CCN(c4ccc(NS(=O)(=O)c5ccc(NC(CCN6CCC(C(=O)OCCCP(=O)(O)O)CC6)CSc6ccccc6)c(S(=O)(=O)C(F)(F)F)c5)cc4)CC3)c2)c(-c2ccc(Cl)cc2)n1C(C)C | SYO-1 complex spheroid growth, percent test/control | > 1 µM |

Let us move to another entry and its IC50.
Task: Entry O=C(c1ccc(F)c(F)c1Nc1ccc(I)cc1F)N1CC(O)([C@@H]2CCCCN2)C1 + CNC(C)C(=O)NC1CN(S(=O)(=O)c2cccc(S(=O)(=O)N3CCC4CCC(C(=O)NC(c5ccccc5)c5ccccc5)N4C(=O)C(NC(=O)C(C)NC)C3)c2)CCC2CCC(C(=O)NC(c3ccccc3)c3ccccc3)N2C1=O has what IC50?
Result: > 1 µM
